assay: qHTS for induction of synthetic lethality in tumor cells producing 2HG: qHTS for the HT-1080-IDH1KD cell line; conditions: HT-1080 IDH1 knockdown viability, ATP luminescence, 48 h; series mostly up to 46.1 µM
About 7,500 (2.1%) of roughly 360,000 compounds were called active. Inconclusive results (about 8%) are left out. Calls come from the whole dose curve; as a rule, active = well fitted cell-killing curve with a large enough effect; inconclusive = small, poorly fitted or top-dose-only effect, or effect the other way, or another doubt; inactive = no such curve, though single readings can be large or run the other way. The full list was thinned out, with actives kept by preference.
Form entry, call: pick from True for active, False for inactive

Previously resolved entries follow.
{"molecule": "CC1=C(C(=O)N2CCOCC2)CC(CC(=O)NCc2cccc3ccccc23)C(=O)N1CCC1=CCCCC1 (centres undefined)", "cat": "False"}
{"molecule": "COc1ccc(-c2cnc3c(c2)C(=O)N([C@H](C)CO)C[C@@H](C)[C@H](CN(C)Cc2ccccc2)O3)cc1", "cat": "False"}
{"molecule": "Cc1csc(=O)n1CCC(=O)OCC(=O)Nc1ccc(N2CCOCC2)cc1", "cat": "False"}
{"molecule": "CC1(C)CC(N2CCN(C(c3ccccc3)c3ccccc3)CC2)=CC(=[N+]2CCCCC2)C1", "cat": "True"}
{"molecule": "Cc1cc(C)n2c(Nc3c(C)cccc3C)c(CCc3ccccc3)nc2n1", "cat": "False"}
{"molecule": "COc1ccccc1CN1CCN(C(c2ccccc2)c2ccccc2)CC1", "cat": "False"}
{"molecule": "COc1ccc(CCNC(=O)Nc2ccc3c(c2)c(=O)n(C)n3C)cc1OC", "cat": "False"}
{"molecule": "Cc1ccc([C@H]2C[C@H](O)[C@@H](n3cc(COC(=O)c4ccccc4)nn3)CN2CC2CCCCC2)cc1", "cat": "False"}

Lookup: I'd appreciate the recorded outcome for c1ccc(C(c2ccccc2)N2CCN(Cc3nnnn3C3CCCCC3)CC2)cc1 from this test.
Found: False

Sourced from PubChem BioAssay AID686971
